target.under.test: Sodium channel protein type 10 subunit alpha (Homo sapiens, UniProt Q9Y5Y9)
Sequence (Q9Y5Y9 whole entry): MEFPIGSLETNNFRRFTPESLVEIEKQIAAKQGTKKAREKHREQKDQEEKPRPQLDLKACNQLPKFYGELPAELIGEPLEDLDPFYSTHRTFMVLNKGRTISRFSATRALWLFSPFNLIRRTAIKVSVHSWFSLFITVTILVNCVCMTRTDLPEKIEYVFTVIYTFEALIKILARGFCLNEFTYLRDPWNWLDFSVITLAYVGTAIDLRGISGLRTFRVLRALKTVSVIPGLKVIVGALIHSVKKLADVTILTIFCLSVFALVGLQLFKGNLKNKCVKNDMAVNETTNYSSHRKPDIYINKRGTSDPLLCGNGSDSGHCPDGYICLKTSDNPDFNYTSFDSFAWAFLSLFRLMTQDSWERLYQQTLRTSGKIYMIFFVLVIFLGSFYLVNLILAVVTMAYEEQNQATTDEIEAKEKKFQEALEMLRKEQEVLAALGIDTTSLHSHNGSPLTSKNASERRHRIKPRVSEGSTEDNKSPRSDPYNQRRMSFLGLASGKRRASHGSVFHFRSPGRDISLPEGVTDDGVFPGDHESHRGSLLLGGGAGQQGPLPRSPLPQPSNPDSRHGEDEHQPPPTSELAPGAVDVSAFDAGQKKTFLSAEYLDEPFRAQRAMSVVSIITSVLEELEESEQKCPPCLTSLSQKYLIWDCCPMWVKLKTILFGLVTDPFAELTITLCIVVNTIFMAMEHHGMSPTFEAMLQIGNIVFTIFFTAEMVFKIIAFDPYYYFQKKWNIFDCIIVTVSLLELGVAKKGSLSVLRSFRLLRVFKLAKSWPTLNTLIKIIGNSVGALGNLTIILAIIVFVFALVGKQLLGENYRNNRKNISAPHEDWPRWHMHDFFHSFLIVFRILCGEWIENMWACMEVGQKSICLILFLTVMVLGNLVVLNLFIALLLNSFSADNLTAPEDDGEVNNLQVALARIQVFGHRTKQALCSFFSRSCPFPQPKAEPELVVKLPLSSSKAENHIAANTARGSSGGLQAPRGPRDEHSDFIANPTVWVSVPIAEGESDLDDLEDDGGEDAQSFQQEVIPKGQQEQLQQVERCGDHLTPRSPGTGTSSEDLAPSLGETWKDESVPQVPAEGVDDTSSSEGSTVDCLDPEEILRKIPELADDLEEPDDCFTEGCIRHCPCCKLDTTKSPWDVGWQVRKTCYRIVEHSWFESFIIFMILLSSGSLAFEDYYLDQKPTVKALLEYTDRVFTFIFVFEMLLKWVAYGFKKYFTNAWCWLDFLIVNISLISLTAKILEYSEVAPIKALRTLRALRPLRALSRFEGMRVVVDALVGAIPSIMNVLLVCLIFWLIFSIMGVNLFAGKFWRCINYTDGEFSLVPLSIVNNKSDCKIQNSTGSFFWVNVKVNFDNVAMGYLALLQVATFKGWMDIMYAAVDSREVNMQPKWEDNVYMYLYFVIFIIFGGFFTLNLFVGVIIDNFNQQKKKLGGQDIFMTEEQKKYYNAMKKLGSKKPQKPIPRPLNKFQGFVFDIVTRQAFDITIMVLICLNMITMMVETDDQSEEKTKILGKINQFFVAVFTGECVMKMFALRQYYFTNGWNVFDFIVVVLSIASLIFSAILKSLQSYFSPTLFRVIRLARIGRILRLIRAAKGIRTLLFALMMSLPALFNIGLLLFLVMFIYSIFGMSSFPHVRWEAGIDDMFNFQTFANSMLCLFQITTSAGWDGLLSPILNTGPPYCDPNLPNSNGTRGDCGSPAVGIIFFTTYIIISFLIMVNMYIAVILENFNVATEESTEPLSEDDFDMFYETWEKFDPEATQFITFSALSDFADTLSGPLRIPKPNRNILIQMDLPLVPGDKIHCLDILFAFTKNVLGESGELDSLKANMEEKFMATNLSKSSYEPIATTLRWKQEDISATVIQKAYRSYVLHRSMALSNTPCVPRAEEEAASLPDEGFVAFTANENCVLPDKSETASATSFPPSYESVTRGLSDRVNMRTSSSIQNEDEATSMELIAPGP
test.name: Inhibition of human Nav1.8 expressed in HEK cells applied electrical stimulus 10 Hz for 10 seconds measuring relaxation to the resting state followed by post stimulation by E-VIPR Assay
pIC50: −log10 of the molar value.
value.kind: pIC50

Sample records with pIC50:
>>> df
                              smiles_record  value_kind  value_observed
0  COc1c(Oc2cc(Cl)c(C)c(F)c2C(=O)Nc2ccnc(C(N)=O)c2)ccc(OC(F)(F)F)c1F       pIC50            8.85
1  COc1c(Cl)cc(Oc2ccc(OC(F)(F)F)c(F)c2OC)c(C(=O)Nc2ccnc(C(N)=O)c2)c1F       pIC50            8.89

a. COc1c(Oc2cc(C(F)(F)F)c(C)c(F)c2C(=O)Nc2ccnc(C(N)=O)c2)ccc(OC(F)(F)F)c1F
b. COc1cc(OC(F)(F)F)ccc1Oc1ccc(C(F)(F)F)c(C)c1C(=O)Nc1ccnc(C(N)=O)c1
Lookup: Between a and b , whose measured pIC50 reads higher? Write down the label of the entry you select.
Found: a

###

target.under.test: Sodium channel protein type 10 subunit alpha (Homo sapiens, UniProt Q9Y5Y9)
test.name: Inhibition of human Nav1.8 expressed in HEK cells applied electrical stimulus 10 Hz for 10 seconds measuring relaxation to the resting state followed by post stimulation by E-VIPR Assay
pIC50: −log10 of the molar value.
value.kind: pIC50

Sample records with pIC50:
>>> print(df.to_string())
                              smiles_record  value_observed
0  COc1cc(Oc2ccc(OC(F)(F)F)c(F)c2OC)c(C(=O)Nc2ccnc(C(N)=O)c2)c(F)c1Cl            8.77
1  COc1cc(OC(F)(F)F)ccc1Oc1ccc(C(F)(F)F)c(Cl)c1C(=O)Nc1ccnc(C(N)=O)c1            8.70
2  COc1cc(OC(F)(F)F)ccc1Oc1ccc(C(F)(F)F)c(Br)c1C(=O)Nc1ccnc(C(N)=O)c1            8.70
3  COc1cc(OC(F)(F)F)ccc1Oc1cc(OC)c(C(F)(F)F)c(F)c1C(=O)Nc1ccnc(C(N)=O)c1            8.74
4  COc1c(Oc2ccc(Cl)c(F)c2C(=O)Nc2ccnc(C(N)=O)c2)ccc(OC(F)(F)F)c1F            8.64
5  COc1c(Oc2ccc(C(F)(F)F)c(C)c2C(=O)Nc2ccnc(C(N)=O)c2)ccc(OC(F)(F)F)c1F            8.52

P. COc1c(Oc2cc(C(F)(F)F)c(OC)c(F)c2C(=O)Nc2ccnc(C(N)=O)c2)ccc(OC(F)(F)F)c1F
Q. COc1cc(Oc2ccc(OC(F)(F)F)c(F)c2OC)c(C(=O)Nc2ccnc(C(N)=O)c2)c(F)c1C(F)(F)F
Lookup: Between P and Q , whose measured pIC50 reads higher? Write down the label of the entry you select.
Found: Q
